- System: 439559-082-T-J2-PDC complex spheroid growth;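 note: spheroids exposed to agents for 7 days starting day 3 after seeding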
- protocol summary: Anticancer human tumor 439559-082-T-J2-PDC patient-derived colon adenocarcinoma cell line growth inhibition [Asc]
- run parameters: curve of first compound; second compound 1 µM
pIC50: −log10 of the molar value.
Known pIC50 of a selection of molecules

>  <molecule>
CCN1C(C(=O)NC23CCC(C(=O)O)(CC2)CC3)C(c2cccc(Cl)c2F)C2(C(=O)Nc3cc(Cl)ccc32)C12CCCCC2 (configuration not stated) + Cc1c(S(C)(=O)=O)c(-c2cc(F)cc(N3CCN(c4ccc(NS(=O)(=O)c5ccc(NC(CCN6CCC(C(=O)OCCCP(=O)(O)O)CC6)CSc6ccccc6)c(S(=O)(=O)C(F)(F)F)c5)cc4)CC3)c2)c(-c2ccc(Cl)cc2)n1C(C)C

>  <value comparator>
<

>  <pIC50>
5.52

$$$$
>  <molecule>
COc1c(OCCCN2CCOCC2)ccc2c3n(c(=NC(=O)c4cnc(N)nc4)nc12)CCN3 + CNC(C)C(=O)NC1CN(S(=O)(=O)c2cccc(S(=O)(=O)N3CCC4CCC(C(=O)NC(c5ccccc5)c5ccccc5)N4C(=O)C(NC(=O)C(C)NC)C3)c2)CCC2CCC(C(=O)NC(c3ccccc3)c3ccccc3)N2C1=O

>  <value comparator>
=

>  <pIC50>
6.42

$$$$
